Assign TGI to each entry below.
# Test system: OVCAR-4 ovarian
# ASSAY COMMENT: NCI tumour cell line growth inhibition, 48 h

QUERY: Quick one: TGI for CC(C)(C)c1ccc(OC2CCO2)cc1 (stereo not drawn) ?
RESULT: > 100 µM

QUERY: Here is the next compound: COc1cccc2c(=O)c3c(sc12)c(NCCCNCCO)nc1ccccc13
RESULT: 3.38 µM

QUERY: Here is the next compound: Cc1cc(C)c(/C=C(\C(=C/c2c(C)cc(C)cc2C)[N+](=O)[O-])[N+](=O)[O-])c(C)c1
RESULT: > 100 µM

QUERY: Here is the next compound: O=C(O)c1ccccc1C(=O)c1ccc2c(c1)Cc1ccccc1-2
RESULT: > 100 µM

QUERY: Here is the next compound: O=c1[nH]c2cc([N+](=O)[O-])ccc2nc1/C(=N\Nc1ccccc1)C(O)c1ccc2c(c1)OCO2 (stereo not drawn)
RESULT: > 100 µM

QUERY: Here is the next compound: N#C/C(=C1\SC(N=Nc2ccc(Cl)cc2)C(=O)N1c1ccccc1)c1nc2ccccc2[nH]1 (stereo not drawn)
RESULT: 55.8 µM

QUERY: Here is the next compound: CN(C)c1cccc2c1C(=O)C=CC21c2ccc(N(C)C)c3c(N(C)C)ccc(c23)C(c2ccccc2)C1c1ccccc1 (stereo not drawn)
RESULT: 27.2 µM

QUERY: Here is the next compound: COc1ccc2c(NCCCCCCNc3c4ccccc4nc4cc(OC)ccc34)c3ccccc3nc2c1
RESULT: 0.461 µM

QUERY: Here is the next compound: C[C@H]1[C@H](C)CC[C@]2(C(=O)OC3OC(CO)C(O)C(O)C3O)CC[C@]3(C)C(=CC[C@@H]4[C@@]5(C)C[C@H]6OC(=O)c7cc(O)c(O)c(O)c7-c7c(cc(O)c(O)c7O)C(=O)O[C@@H]6C(CO)(CO)[C@@H]5CC[C@]43C)[C@H]12 (stereo partly drawn)
RESULT: > 100 µM

QUERY: Here is the next compound: COc1ccc(-n2nc(C)c3c(Nc4ccc(NC(=O)Nc5ccc(Cl)c(C(F)(F)F)c5)cc4)ncnc32)cc1
RESULT: > 100 µM

QUERY: Here is the next compound: COC(=O)N1N=C(c2ccccc2)C1c1ccccc1 (stereo not drawn)
RESULT: > 100 µM

QUERY: Here is the next compound: O=C(c1cccs1)C1NO[N+]([O-])=C1c1cccs1 (stereo not drawn)
RESULT: 4.97 µM

QUERY: Here is the next compound: O=C(CC1(O)C(=O)Nc2c(Cl)ccc(Cl)c21)c1ccc(Cl)cc1Cl (stereo not drawn)
RESULT: 23.3 µM

QUERY: Here is the next compound: CC(C)Oc1ccc(C(=O)Cn2ccnc2)cc1-n1c(CN2CCN(C(=O)COc3ccc(Cl)cc3)CC2)nc2ccccc2c1=O
RESULT: > 64.8 µM

QUERY: Here is the next compound: CN1CCN(C2=C(Cl)C3(OCCS3)C(F)(F)C2(F)F)CC1 (stereo not drawn)
RESULT: > 100 µM

QUERY: Here is the next compound: C[C@]12CC[C@@H]3c4ccc(O)cc4CC[C@H]3[C@@H]1C/C(=C\c1ccc(C#N)cc1)C2=O
RESULT: > 100 µM

QUERY: Here is the next compound: O=C(O)CN(CC(=O)O)C(C(=O)O)c1ccccc1 (stereo not drawn)
RESULT: > 100 µM

QUERY: Here is the next compound: Cc1cccc(C)c1N1C(=O)C(=O)C(c2nc3ccccc3s2)/C(=N/NC(=O)NN)C1=O (stereo not drawn)
RESULT: > 100 µM
